Source: ChEMBL document CHEMBL1201862

Target: Cytochrome P450 3A4 (Homo sapiens);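 also: CYP3A4 tested as one member of a cytochrome P450 panel screen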
Sequence (P08684 whole entry): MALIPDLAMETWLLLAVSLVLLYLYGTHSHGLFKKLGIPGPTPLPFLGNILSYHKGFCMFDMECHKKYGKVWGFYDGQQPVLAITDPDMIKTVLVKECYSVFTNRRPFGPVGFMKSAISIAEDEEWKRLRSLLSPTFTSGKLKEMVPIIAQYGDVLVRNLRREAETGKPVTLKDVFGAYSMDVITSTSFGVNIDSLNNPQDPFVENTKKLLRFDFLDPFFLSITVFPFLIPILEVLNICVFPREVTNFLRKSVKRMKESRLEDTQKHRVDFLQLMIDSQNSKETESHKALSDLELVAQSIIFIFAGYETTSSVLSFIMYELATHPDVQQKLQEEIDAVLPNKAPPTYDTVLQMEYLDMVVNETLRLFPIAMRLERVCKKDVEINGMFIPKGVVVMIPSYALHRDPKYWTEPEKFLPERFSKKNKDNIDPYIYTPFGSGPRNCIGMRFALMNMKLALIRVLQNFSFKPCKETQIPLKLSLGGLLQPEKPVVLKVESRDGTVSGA
OBSERVED_PROPERTY: AC50

The examples below pair each entry with its known result.
CO[C@H]1OC[C@@]2(C)[C@@H]3C4=C(CN2C(=O)OC(C)(C)C)[C@H](C)[C@H](CO)[C@H](CO)[C@H]4CC[C@H]13
10 µM (inconclusive)
CC(C)C[C@@H](N)C(=O)Nc1ccc2ccccc2c1
2.51 µM (inconclusive)
COc1ccccc1NC(=O)c1cnc2n(c1=O)CCS2
31.6 µM (inconclusive)
COCCNc1nc(-c2c(C)noc2C)nc2ccccc12
15.8 µM (inconclusive)
COc1cc(-c2nnc(SC/C=C/c3ccccc3)n2N)cc(OC)c1OC
31.6 µM (inconclusive)

For each listed entry, give its AC50.
1. Cn1/c(=N\C(=O)CCl)sc2ccccc21
2. COCCNC(=O)c1cc2c3ccccc3n(C)c2s1

["15.8 µM (inconclusive)", "28.2 µM (inconclusive)"]
